Source: patent US8722622B2

TEST_DETAILS: Stability of linkers L1-L4 conjugated to FGF21 (LC-MS)
Type: physicochemical
ASSAY_CONTEXT: +4° C., 0 hrs
Method: The following experiment was performed to investigate the chemical stability over 2 weeks of the four linkers upon conjugation to FGF21: each linker was conjugated to FGF21, placed at +4° C. storage conditions, and aliquots were removed and quenched by freezing at specific time points, and linker stability was monitored by LCMS analysis. The four linkers were dissolved in DMSO from lyophilized stock material. […] L1 was reacted with protein for 30 mins; L2, L3 and L4 were reacted for 2 hrs. […]
OBSERVABLE: +(2) H2O (%)
Answer with a number only, understood to be in %.

Form field +(2) H2O, entry L1-FGF21ΔH-A129C: Linker-1 conjugated to FGF21ΔH-A129C protein (Table 4; Table 5 row L1) (conjugate, UniProt Q9NSA1 29-209, looked up, variant H1* A129C, Linker-1 attached) Fibroblast growth factor 21: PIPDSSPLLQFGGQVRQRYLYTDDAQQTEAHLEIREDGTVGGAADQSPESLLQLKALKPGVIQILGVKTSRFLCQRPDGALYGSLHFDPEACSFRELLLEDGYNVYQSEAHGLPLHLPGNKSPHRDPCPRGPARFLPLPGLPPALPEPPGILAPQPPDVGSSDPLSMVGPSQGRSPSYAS : 8
